- measurement_description: Solubility (alpha-MEM culture medium, containing 5% fetal calf serum)
- Type: physicochemical
- condition_summary: alpha-MEM culture medium with 5% fetal calf serum; read-out: S
# cutoff 40 µM applies to solubility; >= gives True, < gives False

Examples from the recorded data:
- NC(=O)c1cc(N(CCI)CCI)c([N+](=O)[O-])cc1[N+](=O)[O-]: False
- O=C(NCCO)c1cc(N(CCCl)CCCl)c([N+](=O)[O-])cc1[N+](=O)[O-]: True
- NC(=S)c1cc(N(CCCl)CCCl)c([N+](=O)[O-])cc1[N+](=O)[O-]: False
- CS(=O)(=O)OCCN(CCCl)c1cc(C(N)=O)c([N+](=O)[O-])cc1[N+](=O)[O-]: True

Let us examine a further case.
Test whether the molecule CN(C)C(=O)c1cc(N(CCCl)CCCl)c([N+](=O)[O-])cc1[N+](=O)[O-] records solubility of 40 µM or higher. True

---

# CT10 annotations
- System: UV4
- measurement_description: Tested for the product of drug concentration and exposure time required to reduce UV4 cell survival to 10% under hypoxic condition by clonogenic assay
Output spec: scalar in µM·h, unitless text.

Worked examples, 2 compounds total:
* NS(=O)(=O)c1cc(N(CCCl)CCCl)c([N+](=O)[O-])cc1[N+](=O)[O-] | 5.7
* O=C(O)CCNC(=O)c1cc(N(CCCl)CCCl)c([N+](=O)[O-])cc1[N+](=O)[O-] | 12000

# return recorded CT10 for input CS(=O)(=O)OCCN(CCOS(C)(=O)=O)c1cc(C(N)=O)c([N+](=O)[O-])cc1[N+](=O)[O-] 70

# return recorded CT10 for input NC(=O)c1cc(N2CC2)c([N+](=O)[O-])cc1[N+](=O)[O-] 225

# return recorded CT10 for input N#Cc1cc(N(CCCl)CCCl)c([N+](=O)[O-])cc1[N+](=O)[O-] 10

# return recorded CT10 for input O=C(O)c1cc(N(CCCl)CCCl)c([N+](=O)[O-])cc1[N+](=O)[O-] 19000

# return recorded CT10 for input NC(=O)c1cc(N(CCBr)CCBr)c([N+](=O)[O-])cc1[N+](=O)[O-] 8

---

- measurement_description: Tested for hypersensitivity factor which is the ratio of cytotoxicities against aerobic UV4 cells and chinese hamster ovary fibroblast line AA8
# IC50 ratio annotations

Worked examples, 8 compounds total:
* CS(=O)(=O)OCCN(CCOS(C)(=O)=O)c1cc(C(N)=O)c([N+](=O)[O-])cc1[N+](=O)[O-] | >4
* NC(=O)c1cc(N(CCCl)CCCl)c([N+](=O)[O-])cc1[N+](=O)[O-] | 6.8
* O=C(c1cc(N(CCCl)CCCl)c([N+](=O)[O-])cc1[N+](=O)[O-])N1CCOCC1 | 23
* N#Cc1cc(N(CCCl)CCCl)c([N+](=O)[O-])cc1[N+](=O)[O-] | 6.8
* O=C(NCCN1CCOCC1)c1cc(N(CCCl)CCCl)c([N+](=O)[O-])cc1[N+](=O)[O-] | 3
* CN(C)C(=O)c1cc(N(CCCl)CCCl)c([N+](=O)[O-])cc1[N+](=O)[O-] | 1.4
* NC(=O)c1cc(N2CC2)c([N+](=O)[O-])cc1[N+](=O)[O-] | 50
* NC(=S)c1cc(N(CCCl)CCCl)c([N+](=O)[O-])cc1[N+](=O)[O-] | >2

Turning to the following compound.
# return recorded IC50 ratio for input NC(=O)c1cc(N(CCI)CCI)c([N+](=O)[O-])cc1[N+](=O)[O-] 2.6
